target or system: NME1 (Mus musculus, UniProt P15532)
pKd: −log10 of the molar value.
endpoint: pKd

Entry `CC(C)(COP(=O)(O)OP(=O)(O)OC[C@H]1O[C@@H](n2cnc3c(N)ncnc32)[C@H](O)[C@@H]1OP(=O)(O)O)[C@@H](O)C(=O)NCCC(=O)NCCS` under NME1 (Mus musculus, UniProt P15532) had pKd of ~4.74
